# target-desc: von Willebrand factor (VWF) (Homo sapiens, UniProt P04275 P04275:764-2813)
# test-protocol: filter; Bmax 72%; 2 mM CaCl2, 37 C
# details: tags: factor VIII free, Haematologic Technologies Inc; label: 5'-32P
result-type: pKd
Quick note: pKd values are minus log10 of concentrations in mol/L.

Req: I am curious: what pKd value has been reported for ACGAACUGCCCUCGUAAGACGCACAGACGU (ssRNA, mAmCmGmAmAmCmUmGfCfCfCmUmCmGmUmAmAmGmAfCrGfCmAmCmAmGmAmCmGfUidT) [DTRI-011] ?
Resp: 8.42
